Origin of measurements: ChEMBL document CHEMBL1764952

measured.on: Casein kinase II (Homo sapiens) (UniProt P67870+P68400+P19784)
test.summary: Inhibition of human recombinant CK2 using RRRDDDSDDD-EDANS peptide substrate at 10 µM by capillary electrophoresis analysis
property.label: inhibition (%)

sample_smiles=CCOC(=O)c1oc2c(Cl)c(Cl)c(OC(C)=O)c(C#N)c2c1N result_unit=% measured_number=69

P = CC(=O)Oc1c(Cl)c(Cl)c2oc(C(=O)C=C(C)C)c(N)c2c1C#N
Q = CC(C)=CC(=O)c1coc2ccc(O)cc12
R = CCOC(=O)c1oc2ccc(OC(C)=O)c(CNC(C)=O)c2c1NC(C)=O
Prompt line: Put the items in order so that reported inhibition rises from first to last. Provide the labels, sequenced as the question asks.
Response line: R, Q, P
(R: 0%, Q: 39%, P: 93%)

---

measured.on: Casein kinase II (Homo sapiens, UniProt P19784+P67870+P68400)
Sequence (P67870 whole entry): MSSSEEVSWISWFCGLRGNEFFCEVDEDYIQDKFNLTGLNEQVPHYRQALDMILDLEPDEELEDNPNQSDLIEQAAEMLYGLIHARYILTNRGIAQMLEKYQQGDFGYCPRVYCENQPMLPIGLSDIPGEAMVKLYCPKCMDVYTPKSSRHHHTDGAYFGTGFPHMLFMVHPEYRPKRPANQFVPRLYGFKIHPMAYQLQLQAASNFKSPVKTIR
Sequence (P68400 whole entry): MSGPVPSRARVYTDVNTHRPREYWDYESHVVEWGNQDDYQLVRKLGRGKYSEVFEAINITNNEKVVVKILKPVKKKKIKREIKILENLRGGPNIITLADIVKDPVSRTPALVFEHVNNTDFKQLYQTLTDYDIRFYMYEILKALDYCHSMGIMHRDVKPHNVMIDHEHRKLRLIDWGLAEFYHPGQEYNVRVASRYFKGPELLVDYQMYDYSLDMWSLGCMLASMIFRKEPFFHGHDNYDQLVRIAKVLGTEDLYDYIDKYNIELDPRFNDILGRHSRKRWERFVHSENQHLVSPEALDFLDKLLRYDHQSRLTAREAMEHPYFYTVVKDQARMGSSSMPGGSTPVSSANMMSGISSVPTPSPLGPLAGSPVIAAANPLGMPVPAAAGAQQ
Sequence (P19784 whole entry): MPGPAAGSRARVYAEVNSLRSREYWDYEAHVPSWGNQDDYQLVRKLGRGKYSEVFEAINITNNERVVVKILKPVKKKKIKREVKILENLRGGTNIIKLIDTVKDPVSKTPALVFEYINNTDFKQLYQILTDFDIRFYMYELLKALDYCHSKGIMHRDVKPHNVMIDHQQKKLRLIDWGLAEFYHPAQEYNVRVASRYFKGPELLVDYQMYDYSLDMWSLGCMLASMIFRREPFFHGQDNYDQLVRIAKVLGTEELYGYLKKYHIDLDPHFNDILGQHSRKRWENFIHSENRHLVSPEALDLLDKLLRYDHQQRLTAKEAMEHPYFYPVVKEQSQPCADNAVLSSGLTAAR
test.summary: Inhibition of human recombinant CK2 using RRRDDDSDDD-EDANS peptide substrate by capillary electrophoresis analysis
property.label: IC50 (nM)

1 = CC(=O)Oc1c(Cl)c(Cl)c2oc(C(=O)C=C(C)C)c(N)c2c1C#N
2 = CCOC(=O)c1oc2c(Cl)c(Cl)c(OC(C)=O)c(C#N)c2c1N
Prompt line: Hi, I'm comparing two records. Which one has the lower IC50, 1 or 2 ? Let me know the label of the one you choose.
Response line: 1
